- target.or.system: CCK-receptor (Rattus norvegicus)
- Construct: Pancreatic plasma membranes were prepared by the method of Chang et al
- Sequence (P30551 whole entry): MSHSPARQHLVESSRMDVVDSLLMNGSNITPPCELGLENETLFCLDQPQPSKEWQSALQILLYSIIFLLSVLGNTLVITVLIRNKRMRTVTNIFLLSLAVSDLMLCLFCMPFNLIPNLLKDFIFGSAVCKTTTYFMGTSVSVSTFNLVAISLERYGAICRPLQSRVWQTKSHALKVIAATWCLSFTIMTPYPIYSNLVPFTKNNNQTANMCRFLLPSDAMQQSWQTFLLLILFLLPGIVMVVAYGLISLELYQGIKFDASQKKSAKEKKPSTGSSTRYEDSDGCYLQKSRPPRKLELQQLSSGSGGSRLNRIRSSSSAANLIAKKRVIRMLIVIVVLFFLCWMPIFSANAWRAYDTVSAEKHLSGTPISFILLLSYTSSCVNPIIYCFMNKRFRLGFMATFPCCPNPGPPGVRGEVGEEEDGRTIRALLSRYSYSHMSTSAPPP
- protocol.description: CCK-receptor binding assay in pancreas (125I-CCK-8, pancreatic plasma membranes)
- condition.summary: 30 pM 125I-CCK-8, rat pancreatic plasma membranes, 37° C., 30 minutes; inhibition of specific binding
pIC50: −log10 of the molar value.
quantity.kind: pIC50

CCCCCN(CCCOC)C(=O)C(CCC(=O)O)CS(=O)(=O)c1ccc2ccccc2c1 (centres unmarked) [Compound No. 18]; 6.47
CCCCCN(CCCN1CCCC1=O)C(=O)C(CCC(=O)O)CS(=O)(=O)c1ccc2ccccc2c1 (centres unmarked); 6.66
C=CCOCCN(CCOCC=C)C(=O)C(CCC(=O)OC)CS(=O)(=O)c1ccc2ccccc2c1 (centres unmarked); 5.51
CCCCCN(CC(=O)NC(C)C)C(=O)C(CCC(=O)O)CS(=O)(=O)c1ccc2ccccc2c1 (centres unmarked); 5.39
CCCCCN(CC(=O)N1CCOCC1)C(=O)C(CCC(=O)O)CS(=O)(=O)c1ccc2ccccc2c1 (centres unmarked); 6.21
CCCCCN(CC(=O)O)C(=O)C(CCC(=O)O)CS(=O)(=O)c1ccc2ccccc2c1 (centres unmarked); 5.47
COC(=O)CCC(CS(=O)(=O)c1ccc2ccccc2c1)C(=O)N(CCC1CCCCC1)CCC1CCCCC1 (centres unmarked); 5.77
CCCCCN(CCCOC)C(=O)C(CCC(=O)OC)CS(=O)(=O)c1ccc2ccccc2c1 (racemic); 5.62

a: CCCCCN(CCC(=O)OCC)C(=O)C(CCC(=O)O)CS(=O)(=O)c1ccc2ccccc2c1 (centres unmarked)
b: C=CCOCCN(CCOCC=C)C(=O)C(CCC(=O)O)CS(=O)(=O)c1ccc2ccccc2c1 (centres unmarked)
Challenge: Identify the item whose pIC50 is the smaller number: a or b // caller expects the label of the chosen entry
Response given: b

A: CCCCCN(CC(=O)OCC)C(=O)C(CCC(=O)OC)CS(=O)(=O)c1ccc2ccccc2c1 (racemic)
B: CCCCCN(CC(=O)N1CCCC1)C(=O)C(CCC(=O)O)CS(=O)(=O)c1ccc2ccccc2c1 (centres unmarked)
Challenge: Identify the item whose pIC50 is the smaller number: A or B // caller expects the label of the chosen entry
Response given: A

I: CCCCCN(CCOC(=O)C(C)(C)C)C(=O)C(CCC(=O)O)CS(=O)(=O)c1ccc2ccccc2c1 (centres unmarked)
II: O=C(O)CCC(CS(=O)(=O)c1ccc2ccccc2c1)C(=O)N(CCC1CCCCC1)CCC1CCCCC1 (centres unmarked)
Challenge: Identify the item whose pIC50 is the smaller number: I or II // caller expects the label of the chosen entry
Response given: II
